The measured values listed here are drawn from patent US7488716B2.

target: glucagon receptor (Rattus norvegicus, UniProt P30082); construct: glucagon receptor present in the plasma membranes isolated from rat liver; from tissue; host or cells: rat liver plasma membranes; assay: Competitive binding of peptide to the glucagon receptor in rat liver plasma membranes (125I glucagon)
Sequence (P30082 27-485): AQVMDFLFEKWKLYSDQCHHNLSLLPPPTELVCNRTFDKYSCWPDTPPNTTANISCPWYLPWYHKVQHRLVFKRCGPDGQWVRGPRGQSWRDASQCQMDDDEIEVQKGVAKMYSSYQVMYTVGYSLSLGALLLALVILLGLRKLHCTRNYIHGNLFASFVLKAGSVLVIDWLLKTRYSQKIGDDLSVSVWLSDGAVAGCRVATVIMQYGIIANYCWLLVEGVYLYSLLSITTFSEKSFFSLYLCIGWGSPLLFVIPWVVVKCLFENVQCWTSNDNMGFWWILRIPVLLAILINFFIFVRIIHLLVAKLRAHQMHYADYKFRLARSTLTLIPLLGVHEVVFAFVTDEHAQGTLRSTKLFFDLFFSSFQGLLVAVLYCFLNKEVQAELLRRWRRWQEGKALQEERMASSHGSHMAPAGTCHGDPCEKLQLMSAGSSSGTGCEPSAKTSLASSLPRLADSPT
Where no end group is shown, it is not given here.
REPORTED_ENDPOINT: pIC50
Schema: pIC50 number; meaning minus log10 of the concentration expressed in molar units.

>  <SUBSTANCE>
HSQGTFTSDYAKYLDARRAKEFIAWLVKGRG [G51]

>  <pIC50>
6.81

$$$$

Ask: Complete the entry with pIC50 for HSQGTFTSDYAKYLDARRAKEFIAWLVKGRC [G77]
Result: 7.21

Ask: Complete the entry with pIC50 for HSQGTFTSDYSKYLEGQAAKEFIAWLVKGR-NH2 [G5]
Result: 6.61

Ask: Complete the entry with pIC50 for HSQGTFTSDYAKYLDAKKAKEFIAWLVKGRG [G58]
Result: 6.79

Ask: Complete the entry with pIC50 for HSQGTFTSDYAKYLDARRACEFIAWLVKGRG [G71]
Result: 7.59

Ask: Complete the entry with pIC50 for HSQGTFTSDYAKYLDARRAKEFIAWLVKCRG [G75]
Result: 7.27

Ask: Complete the entry with pIC50 for HSQGTFTSDYARYLDARRAREFIAWLVRGRGK [G85]
Result: 7.79

Ask: Complete the entry with pIC50 for HSQGTFTSDYAKYLDARRAKEFIAWLVCGRG [G74]
Result: 7.66

Ask: Complete the entry with pIC50 for HSQGTFTSDYAKYLDAAKAKEFIAWLVKGRG [G60]
Result: 6.17

Ask: Complete the entry with pIC50 for HSQGTFTSDYARYLDARRAREFIAWLVKGRG [G84]
Result: 7.93

Ask: Complete the entry with pIC50 for HSQGTFTSDYARYLDAAKAKEFIAWLVKGRG [G61]
Result: 6.63

* * *

Target: GLP-1 receptor (Rattus norvegicus)
Construct: endogenous in cells; host or cells: RINm5F cells
Sequence (P32301 22-463): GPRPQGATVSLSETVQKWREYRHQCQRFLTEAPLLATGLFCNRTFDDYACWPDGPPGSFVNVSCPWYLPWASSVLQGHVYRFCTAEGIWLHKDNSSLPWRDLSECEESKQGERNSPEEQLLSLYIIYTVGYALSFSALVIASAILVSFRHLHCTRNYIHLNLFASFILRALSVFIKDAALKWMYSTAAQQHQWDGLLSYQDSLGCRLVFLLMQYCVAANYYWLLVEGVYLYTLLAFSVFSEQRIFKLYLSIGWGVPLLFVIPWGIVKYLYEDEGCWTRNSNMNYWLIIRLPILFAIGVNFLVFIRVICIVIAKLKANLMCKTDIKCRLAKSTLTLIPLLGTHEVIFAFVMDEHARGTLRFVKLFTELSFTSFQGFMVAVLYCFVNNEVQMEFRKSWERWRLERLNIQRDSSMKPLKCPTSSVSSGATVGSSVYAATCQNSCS
Assay: Competitive binding of peptide to the GLP-1 receptor in RINm5F cell plasma membranes (125I GLP-1)
Settings: read-out: GLP1 RIN IC50
Where no end group is shown, it is not given here.
REPORTED_ENDPOINT: pIC50
Schema: pIC50 number; meaning minus log10 of the concentration expressed in molar units.

As a guide, the following entries are already answered.
>  <SUBSTANCE>
HSQGTFTSDYARYLDARRAKEFIAWLVKGR-NH2 [G55]

>  <TEST_TARGET>
GLP-1 receptor (Rattus norvegicus)

>  <RECORDED_NUMBER>
8.01

$$$$
>  <SUBSTANCE>
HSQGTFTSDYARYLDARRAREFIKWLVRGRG [G83]

>  <TEST_TARGET>
GLP-1 receptor (Rattus norvegicus)

>  <RECORDED_NUMBER>
8.49

$$$$
>  <SUBSTANCE>
HSQGTFTSDYAKYLDARRACEFIAWLVKGRG [G71]

>  <TEST_TARGET>
GLP-1 receptor (Rattus norvegicus)

>  <RECORDED_NUMBER>
8.24

$$$$
>  <SUBSTANCE>
HSQGTFTSDYAKYLDAAKAKEFIAWLVKGRG [G60]

>  <TEST_TARGET>
GLP-1 receptor (Rattus norvegicus)

>  <RECORDED_NUMBER>
7.86

$$$$
>  <SUBSTANCE>
HSQGTFTSDYAKYLDARRAKEFIAWLVKGCG [G76]

>  <TEST_TARGET>
GLP-1 receptor (Rattus norvegicus)

>  <RECORDED_NUMBER>
7.99

$$$$
>  <SUBSTANCE>
HSQGTFTSDYAAYLDARRAKEFIAWLVKGR-NH2 [G56]

>  <TEST_TARGET>
GLP-1 receptor (Rattus norvegicus)

>  <RECORDED_NUMBER>
8.18

$$$$

Ask: Complete the entry with pIC50 for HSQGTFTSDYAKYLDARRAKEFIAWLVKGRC [G77]
Result: 8.05

Ask: Complete the entry with pIC50 for HSQGTFTSDYAKYLDARRAKEFIAWLVCGRG [G74]
Result: 8.36

Ask: Complete the entry with pIC50 for HSQGTFTSDYAKYLDARRAKEFIAWLVKGRG [G51]
Result: 8.09

Ask: Complete the entry with pIC50 for HSQGTFTSDYARYLDARRAREFIKWLVRGRC [G185]
Result: 8.35

Ask: Complete the entry with pIC50 for HSQGTFTSDYARYLDARRAREFIAWLVKGRG [G84]
Result: 8.85

* * *

target: GLP-1 receptor (Rattus norvegicus, UniProt P32301); construct: endogenous in cells; host or cells: RINm5F cells; assay: Peptide signaling through GLP-1 receptor, cAMP scintillation proximity assay in RINm5F cells; format: cell-based; conditions: EC50 of native GLP-1 (7-36) divided by EC50 of polypeptide x 100; cAMP in RINm5F cells
Where no end group is shown, it is not given here. PEG 22kD = 22 kDa polyethylene glycol (on cysteine)
The threshold is 10%. Values of GLP1 Relative Potency beneath it are tagged y; values meeting or exceeding it are tagged n.

Consider the following illustrative entries.
>  <SUBSTANCE>
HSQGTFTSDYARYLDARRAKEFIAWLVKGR-NH2 [G55]

>  <CLASS>
n

$$$$
>  <SUBSTANCE>
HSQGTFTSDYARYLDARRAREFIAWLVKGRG [G84]

>  <CLASS>
n

$$$$

Ask: Is the reported GLP1 Relative Potency for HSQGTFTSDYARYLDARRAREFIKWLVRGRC(43kD) (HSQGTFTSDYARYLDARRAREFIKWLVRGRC(PEG 43kD); listed as Homo sapiens) [G4185, 43kD PEG linked to the cysteine residue] strictly below 10%?
Result: y

Ask: Is the reported GLP1 Relative Potency for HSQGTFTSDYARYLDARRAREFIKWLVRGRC [G185] strictly below 10%?
Result: n

Ask: Is the reported GLP1 Relative Potency for HSQGTFTSDYAKYLDAARAKEFIAWLVKGR-NH2 [G57] strictly below 10%?
Result: n

Ask: Is the reported GLP1 Relative Potency for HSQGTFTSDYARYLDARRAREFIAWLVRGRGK [G85] strictly below 10%?
Result: n

Ask: Is the reported GLP1 Relative Potency for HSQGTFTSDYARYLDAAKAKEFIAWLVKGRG [G61] strictly below 10%?
Result: n

Ask: Is the reported GLP1 Relative Potency for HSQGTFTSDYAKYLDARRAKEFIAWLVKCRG [G75] strictly below 10%?
Result: y

Ask: Is the reported GLP1 Relative Potency for HSQGTFTSDYAKYLDARRACEFIAWLVKGRG [G71] strictly below 10%?
Result: y

Ask: Is the reported GLP1 Relative Potency for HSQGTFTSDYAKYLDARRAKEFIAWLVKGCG [G76] strictly below 10%?
Result: y

Ask: Is the reported GLP1 Relative Potency for HSQGTFTSDYSKYLEGQAAKEFIAWLVKGR-NH2 [G5] strictly below 10%?
Result: n

Ask: Is the reported GLP1 Relative Potency for HSQGTFTSDYAKYLDARRAKEFIAWLVKGR-NH2 [G27] strictly below 10%?
Result: n

Ask: Is the reported GLP1 Relative Potency for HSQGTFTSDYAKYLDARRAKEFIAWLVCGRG [G74] strictly below 10%?
Result: y

Ask: Is the reported GLP1 Relative Potency for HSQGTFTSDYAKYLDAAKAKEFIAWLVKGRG [G60] strictly below 10%?
Result: n

Ask: Is the reported GLP1 Relative Potency for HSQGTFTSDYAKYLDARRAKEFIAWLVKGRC [G77] strictly below 10%?
Result: y

Ask: Is the reported GLP1 Relative Potency for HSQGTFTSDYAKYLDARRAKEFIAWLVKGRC(22kD) (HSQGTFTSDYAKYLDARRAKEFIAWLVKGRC(PEG 22kD); listed as Homo sapiens) [G277, 22kD PEG linked to the cysteine residue] strictly below 10%?
Result: y

Ask: Is the reported GLP1 Relative Potency for HSQGTFTSDYAKYLDARRAKEFIAWLVKGRG [G51] strictly below 10%?
Result: n

Ask: Is the reported GLP1 Relative Potency for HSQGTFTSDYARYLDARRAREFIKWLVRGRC(22kD) (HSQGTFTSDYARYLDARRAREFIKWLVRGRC(PEG 22kD); listed as Homo sapiens) [G2185, 22kD PEG linked to the cysteine residue] strictly below 10%?
Result: y

Ask: Is the reported GLP1 Relative Potency for HSQGTFTSDYARYLDARRAKEFIAWLVRGRG [G82] strictly below 10%?
Result: n

Ask: Is the reported GLP1 Relative Potency for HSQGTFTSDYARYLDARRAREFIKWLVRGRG [G83] strictly below 10%?
Result: n

Ask: Is the reported GLP1 Relative Potency for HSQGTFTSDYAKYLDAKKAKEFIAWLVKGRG [G58] strictly below 10%?
Result: n

Ask: Is the reported GLP1 Relative Potency for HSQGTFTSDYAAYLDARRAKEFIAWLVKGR-NH2 [G56] strictly below 10%?
Result: n

Ask: Is the reported GLP1 Relative Potency for HSQGTFTSDYARYLDAKKAKEFIAWLVKGRG [G59] strictly below 10%?
Result: n
